# measuredTarget: Human recombinant PDE3A (hPDE3A) (Homo sapiens, UniProt Q14432)
# Construct: purchased Scottish Biomedical; host or cells: Sf9 insect cells
# Sequence (Q14432 whole entry): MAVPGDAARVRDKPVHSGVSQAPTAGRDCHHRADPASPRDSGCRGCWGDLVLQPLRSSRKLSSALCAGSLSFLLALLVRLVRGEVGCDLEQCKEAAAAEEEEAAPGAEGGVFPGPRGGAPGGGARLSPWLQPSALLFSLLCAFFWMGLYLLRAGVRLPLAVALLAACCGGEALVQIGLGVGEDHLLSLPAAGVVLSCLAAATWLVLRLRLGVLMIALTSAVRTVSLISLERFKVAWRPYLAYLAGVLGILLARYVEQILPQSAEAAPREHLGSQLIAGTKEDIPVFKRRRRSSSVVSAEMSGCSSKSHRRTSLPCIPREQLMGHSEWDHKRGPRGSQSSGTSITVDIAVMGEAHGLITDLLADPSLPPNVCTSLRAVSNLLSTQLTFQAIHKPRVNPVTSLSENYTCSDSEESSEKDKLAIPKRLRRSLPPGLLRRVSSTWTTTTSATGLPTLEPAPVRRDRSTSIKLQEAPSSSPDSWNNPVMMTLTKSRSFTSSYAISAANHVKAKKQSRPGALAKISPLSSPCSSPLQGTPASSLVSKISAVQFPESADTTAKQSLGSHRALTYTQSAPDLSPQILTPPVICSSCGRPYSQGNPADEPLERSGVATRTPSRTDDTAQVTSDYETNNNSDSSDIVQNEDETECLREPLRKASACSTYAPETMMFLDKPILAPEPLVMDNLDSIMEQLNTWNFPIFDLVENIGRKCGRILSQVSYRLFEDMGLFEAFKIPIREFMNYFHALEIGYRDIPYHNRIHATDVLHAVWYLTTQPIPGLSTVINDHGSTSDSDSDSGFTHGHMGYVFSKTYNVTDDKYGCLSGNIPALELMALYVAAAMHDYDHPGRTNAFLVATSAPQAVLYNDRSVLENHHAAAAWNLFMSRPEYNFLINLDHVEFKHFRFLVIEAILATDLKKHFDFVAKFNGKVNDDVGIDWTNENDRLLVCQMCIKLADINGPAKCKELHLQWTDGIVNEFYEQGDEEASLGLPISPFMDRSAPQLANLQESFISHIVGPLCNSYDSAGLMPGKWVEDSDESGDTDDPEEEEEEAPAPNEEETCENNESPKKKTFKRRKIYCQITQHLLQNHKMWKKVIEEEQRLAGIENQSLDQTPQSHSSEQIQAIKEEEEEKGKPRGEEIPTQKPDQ
# measurementNotes: In vitro assay PDE3A (SPA, 3H-cAMP hydrolysis);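 further: the method names PDE3A and the table heading PDE3B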
# Type: biochemical
# conditionDescription: read-out: hPDE3B Emax; read-out: Emax
measurementName: Emax

Example entries and their recorded answers appear below.
C[C@@H]1CCN(C(=O)c2ccc(Cl)c(OC(F)F)c2)C[C@H]1c1cc(C(F)F)nc2ncnn12 = 95%
Cc1nc(C2CC2)cc(C(=O)N2CC[C@@H](C)[C@H](c3cc(C(F)F)nc4ncnn34)C2)c1F = 86%
C[C@@H]1CCN(C(=O)c2cccc3c2OC(F)(F)O3)C[C@H]1c1cc(C(F)F)nc2ncnn12 = 60%
O=C(c1cc(F)cc(F)c1)N1[C@H]2CC[C@H](c3cc(C(F)F)nc4ncnn34)[C@@H]1CC2 = 33%
Cc1cc(C(=O)N2CC[C@@H](C)[C@H](c3cc(C(F)F)nc4ncnn34)C2)cc(F)c1F = 80%

Give a short answer stating reported Emax for C[C@@H]1CCN(C(=O)c2ccnc(Cl)c2F)C[C@H]1c1cc(C(F)F)nc2ncnn12 .
41%

Give a short answer stating reported Emax for Cc1cc(C(=O)N2CC[C@@H](C)[C@H](c3cc(C(F)F)nc4ncnn34)C2)c(F)c(C2CC2)n1 .
97%

Give a short answer stating reported Emax for O=C(c1cccc2ccccc12)N1[C@H]2CC[C@H](c3cc(C(F)F)nc4ncnn34)[C@@H]1CC2 .
47%

Give a short answer stating reported Emax for Cc1cc(C(=O)N2CC[C@@H](C)[C@H](c3cc(C(F)F)nc4ncnn34)C2)c(F)cn1 .
30%

Give a short answer stating reported Emax for COc1ccc(C(=O)N2CC[C@@H](C)[C@H](c3cc(C(F)F)nc4ncnn34)C2)nc1 .
48%

Give a short answer stating reported Emax for C[C@@H]1CCN(C(=O)c2cnc(N(C)C)nc2)C[C@H]1c1cc(C(F)F)nc2ncnn12 .
85%

Give a short answer stating reported Emax for C[C@@H]1CCN(C(=O)c2ccc(F)c(O)c2)C[C@H]1c1cc(C(F)F)nc2ncnn12 .
69%

Give a short answer stating reported Emax for C[C@@H]1CCN(C(=O)c2ccc3ncccc3c2)C[C@H]1c1cc(C(F)F)nc2ncnn12 .
95%

Give a short answer stating reported Emax for COc1ccc(C(=O)N2CC[C@@H](C)[C@H](c3cc(C(F)F)nc4ncnn34)C2)cc1C#N .
55%

Give a short answer stating reported Emax for Cc1cc(C(=O)N2[C@H]3CC[C@H](c4cc(C(F)F)nc5ncnn45)[C@@H]2CC3)cnc1C .
22%

====

Listing of recorded Emax by entry.
# measuredTarget: Human recombinant PDE3A (hPDE3A) (Homo sapiens)
# Construct: purchased Scottish Biomedical; host or cells: Sf9 insect cells
# measurementNotes: In vitro assay PDE3A (SPA, 3H-cAMP hydrolysis);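 further: the method names PDE3A and the table heading PDE3B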
# Format: biochemical
# conditionDescription: read-out: hPDE3B Emax; read-out: Emax
# Protocol: Human recombinant PDE3A (hPDE3A) was supplied as a partially purified insect cell lysate by Scottish Biomedical, it was cloned from human brain and expressed in Sf9 cells. Tested compounds were dissolved and diluted in 100% DMSO to a concentration 100 fold of the final concentration in the assay. […] After sedimentation of the beads during 30 min the radioactivity was measured in a Perkin Elmer Topcount scintillation counter and results were expressed as cpm. […]
Write the answer as a number in %, unit excluded.

Example entries and their recorded answers appear below.
COc1c(F)cc(C(=O)N2[C@H]3CC[C@H](c4cc(C(F)F)nc5ncnn45)[C@@H]2CC3)cc1F = 71
C[C@@H]1CCN(C(=O)c2cccc(C#N)c2)C[C@H]1c1cc(C(F)F)nc2ncnn12 = 42
Cc1ncoc1C(=O)N1CC[C@@H](C)[C@H](c2cc(C(F)F)nc3ncnn23)C1 = 19
C[C@@H]1CCN(C(=O)c2ccc3cc[nH]c3c2)C[C@H]1c1cc(C(F)F)nc2ncnn12 = 98
Cc1cc([C@H]2CN(C(=O)c3cc(C)c(F)c(C)c3)CC[C@@H]2C)n2ncnc2n1 = 37
Cc1cc(C(=O)N2CC[C@@H](C)[C@H](c3cc(C(F)F)nc4ncnn34)C2)nc(C)n1 = 12
C[C@@H]1CCN(C(=O)c2nc3ccccc3o2)C[C@H]1c1cc(C(F)F)nc2ncnn12 = 80
O=C(c1ccc2ccccc2n1)N1[C@H]2CC[C@H](c3cc(C(F)F)nc4ncnn34)[C@@H]1CC2 = 72
Cc1nc2ccc(C(=O)N3[C@H]4CC[C@H](c5cc(C(F)F)nc6ncnn56)[C@@H]3CC4)cc2s1 = 61
COc1cc(C(=O)N2CC[C@@H](C)[C@H](c3cc(C(F)F)nc4ncnn34)C2)cc(C(C)C)n1 = 86

Please indicate recorded Emax of Cc1cc([C@@H]2CN(C(=O)c3ccc4nccn4c3)CC[C@H]2C)n2ncnc2n1 measured with Human recombinant PDE3A (hPDE3A) (Homo sapiens).
87

Please indicate recorded Emax of C[C@@H]1CCN(C(=O)c2ccc(F)c(C(F)(F)F)c2)C[C@H]1c1cc(C(F)F)nc2ncnn12 measured with Human recombinant PDE3A (hPDE3A) (Homo sapiens).
57

Please indicate recorded Emax of Cc1cc(C(=O)N2CCC[C@](C)(c3cc(C(F)F)nc4ncnn34)C2)cc(C)n1 (single isomer, unassigned) measured with Human recombinant PDE3A (hPDE3A) (Homo sapiens).
13

Please indicate recorded Emax of C[C@@H]1CCN(C(=O)c2cc(Cl)ncc2F)C[C@H]1c1cc(C(F)F)nc2ncnn12 measured with Human recombinant PDE3A (hPDE3A) (Homo sapiens).
51

Please indicate recorded Emax of Cc1cc(C(=O)N2[C@H]3CC[C@@H]2[C@H](c2cc(C(F)F)nc4ncnn24)CC3)c(F)cn1 measured with Human recombinant PDE3A (hPDE3A) (Homo sapiens).
8

Please indicate recorded Emax of Cc1nc(C(F)(F)F)cc(C(=O)N2CC[C@@H](C)[C@H](c3cc(C(F)F)nc4ncnn34)C2)c1F measured with Human recombinant PDE3A (hPDE3A) (Homo sapiens).
27

Please indicate recorded Emax of Cc1c(C(=O)N2[C@H]3CC[C@@H]2[C@H](c2cc(C(F)F)nc4ncnn24)CC3)oc2ccccc12 measured with Human recombinant PDE3A (hPDE3A) (Homo sapiens).
57

Please indicate recorded Emax of Cc1cc(C)cc(C(=O)N2[C@H]3CC[C@H](c4cc(C(F)F)nc5ncnn45)[C@@H]2CC3)c1 measured with Human recombinant PDE3A (hPDE3A) (Homo sapiens).
59

Please indicate recorded Emax of C[C@@H]1CCN(C(=O)c2ccc3ncsc3c2)C[C@@]1(F)c1cc(C(F)F)nc2ncnn12 measured with Human recombinant PDE3A (hPDE3A) (Homo sapiens).
25

Please indicate recorded Emax of C[C@@H]1CCN(C(=O)c2cnc(CF)cn2)C[C@H]1c1cc(C(F)F)nc2ncnn12 measured with Human recombinant PDE3A (hPDE3A) (Homo sapiens).
28

Please indicate recorded Emax of Cc1cc([C@@H]2CN(C(=O)c3cnc(Cl)c(Cl)c3)CC[C@H]2C)n2ncnc2n1 measured with Human recombinant PDE3A (hPDE3A) (Homo sapiens).
74

Please indicate recorded Emax of C[C@@H]1CCN(C(=O)c2csc(N)n2)C[C@H]1c1cc(C(F)F)nc2ncnn12 measured with Human recombinant PDE3A (hPDE3A) (Homo sapiens).
19

Please indicate recorded Emax of C[C@@H]1CCN(C(=O)c2ncc[nH]2)C[C@H]1c1cc(C(F)F)nc2ncnn12 measured with Human recombinant PDE3A (hPDE3A) (Homo sapiens).
9

Please indicate recorded Emax of C[C@@H]1CCN(C(=O)c2cocn2)C[C@H]1c1cc(C(F)F)nc2ncnn12 measured with Human recombinant PDE3A (hPDE3A) (Homo sapiens).
11

Please indicate recorded Emax of COc1cc(C(=O)N2CC[C@@H](C)[C@H](c3cc(C(F)F)nc4ncnn34)C2)cc(OC)n1 measured with Human recombinant PDE3A (hPDE3A) (Homo sapiens).
89

Please indicate recorded Emax of Cc1nc(C(=O)N2CC[C@H](C)[C@H](c3cc(C(F)F)nc4ncnn34)C2)ccc1F measured with Human recombinant PDE3A (hPDE3A) (Homo sapiens).
19

====

# measuredTarget: Human recombinant PDE2A (hPDE2A) (Homo sapiens)
# Construct: His tag (inferred from metal chelate purification); made in house; host or cells: Sf9 insect cells (baculovirus)
# Sequence (O00408 whole entry): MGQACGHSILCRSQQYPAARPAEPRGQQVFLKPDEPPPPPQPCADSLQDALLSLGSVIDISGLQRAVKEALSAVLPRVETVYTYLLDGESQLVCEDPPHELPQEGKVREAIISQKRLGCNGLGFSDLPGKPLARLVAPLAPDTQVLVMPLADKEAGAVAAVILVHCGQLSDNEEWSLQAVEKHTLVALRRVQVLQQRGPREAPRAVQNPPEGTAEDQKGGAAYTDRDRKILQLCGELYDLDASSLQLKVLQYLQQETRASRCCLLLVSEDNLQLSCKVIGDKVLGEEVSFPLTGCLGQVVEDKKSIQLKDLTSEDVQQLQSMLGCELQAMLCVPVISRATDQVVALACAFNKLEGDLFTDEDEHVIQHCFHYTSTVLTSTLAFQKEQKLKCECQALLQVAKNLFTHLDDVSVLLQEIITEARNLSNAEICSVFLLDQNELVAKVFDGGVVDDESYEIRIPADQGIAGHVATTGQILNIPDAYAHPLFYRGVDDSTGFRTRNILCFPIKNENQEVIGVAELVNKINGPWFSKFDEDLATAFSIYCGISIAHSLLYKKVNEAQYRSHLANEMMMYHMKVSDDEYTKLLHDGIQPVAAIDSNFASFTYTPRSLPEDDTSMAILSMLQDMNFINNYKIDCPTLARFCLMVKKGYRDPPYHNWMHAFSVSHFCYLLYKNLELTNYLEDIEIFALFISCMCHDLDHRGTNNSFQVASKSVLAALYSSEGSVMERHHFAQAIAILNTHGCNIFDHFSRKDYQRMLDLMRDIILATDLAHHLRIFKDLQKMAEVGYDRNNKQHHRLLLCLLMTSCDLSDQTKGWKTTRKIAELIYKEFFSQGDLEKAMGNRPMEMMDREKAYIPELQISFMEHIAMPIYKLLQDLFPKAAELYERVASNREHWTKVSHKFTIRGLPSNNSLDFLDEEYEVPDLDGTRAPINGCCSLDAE
# measurementNotes: In vitro assay PDE2A (SPA, 3H-cGMP hydrolysis)
# Type: biochemical
# conditionDescription: read-out: hPDE2A pIC50 (converted)
measurementName: IC50 (nM)
Write the answer as a number in nM, unit excluded.

Example entries and their recorded answers appear below.
C[C@@H]1CCN(C(=O)c2ccc(Cl)c(C(F)(F)F)c2)C[C@H]1c1cc(C(F)F)nc2ncnn12 = 3.72
Cc1cc([C@@H]2CN(C(=O)c3ccc4nccn4c3)CC[C@H]2C)n2ncnc2n1 = 0.603
C[C@@H]1CCN(C(=O)c2ncc[nH]2)C[C@H]1c1cc(C(F)F)nc2ncnn12 = 1550
C[C@@H]1CCN(C(=O)c2ccn(C)c2)C[C@H]1c1cc(C(F)F)nc2ncnn12 = 2.57
COc1nc(C2CC2)cc(C(=O)N2CC[C@@H](C)[C@H](c3cc(C(F)F)nc4ncnn34)C2)c1F = 2.24
Cc1cc2ccc(C(=O)N3CC[C@@H](C)[C@H](c4cc(C(F)F)nc5ncnn45)C3)cn2c1 = 2.4
Cc1cc(C(=O)N2CC[C@@H](C)[C@H](c3cc(C(F)F)nc4ncnn34)C2)c(Cl)cn1 = 5.5
Cc1nn(C)cc1C(=O)N1CCC[C@](C)(c2cc(C(F)F)nc3ncnn23)C1 (single isomer, unassigned) = 7940
Cc1c(C(=O)N2CC[C@@H](C)[C@H](c3cc(C(F)F)nc4ncnn34)C2)ccnc1Cl = 72.4
O=C(c1ccc(C(F)(F)F)c(F)c1)N1[C@H]2CC[C@H](c3cc(C(F)F)nc4ncnn34)[C@@H]1CC2 = 91.2

Please indicate recorded IC50 of CCn1ccc2cc(C(=O)N3[C@H]4CC[C@H](c5cc(C(F)F)nc6ncnn56)[C@@H]3CC4)ccc21 measured with Human recombinant PDE2A (hPDE2A) (Homo sapiens).
0.275

Please indicate recorded IC50 of Cc1nc2cccc(C(=O)N3CC[C@@H](C)[C@H](c4cc(C(F)F)nc5ncnn45)C3)c2o1 measured with Human recombinant PDE2A (hPDE2A) (Homo sapiens).
3.09

Please indicate recorded IC50 of C[C@@H]1CCN(C(=O)c2cnc(N(C)C)nc2)C[C@H]1c1cc(C(F)F)nc2ncnn12 measured with Human recombinant PDE2A (hPDE2A) (Homo sapiens).
5.25

Please indicate recorded IC50 of Cc1cc([C@@H]2CC[C@@H]3CC[C@H]2N3C(=O)c2ccc3ncsc3c2)n2ncnc2n1 measured with Human recombinant PDE2A (hPDE2A) (Homo sapiens).
1020

Please indicate recorded IC50 of Cc1nc(C(=O)N2CC[C@H](C)[C@H](c3cc(C(F)F)nc4ncnn34)C2)ccc1F measured with Human recombinant PDE2A (hPDE2A) (Homo sapiens).
195
